Data credit: patent US20150239831A1

inhibition at 0.5 µM overview
Target: VIPR2 (Homo sapiens, UniProt P41587)
Sequence (P41587 24-438): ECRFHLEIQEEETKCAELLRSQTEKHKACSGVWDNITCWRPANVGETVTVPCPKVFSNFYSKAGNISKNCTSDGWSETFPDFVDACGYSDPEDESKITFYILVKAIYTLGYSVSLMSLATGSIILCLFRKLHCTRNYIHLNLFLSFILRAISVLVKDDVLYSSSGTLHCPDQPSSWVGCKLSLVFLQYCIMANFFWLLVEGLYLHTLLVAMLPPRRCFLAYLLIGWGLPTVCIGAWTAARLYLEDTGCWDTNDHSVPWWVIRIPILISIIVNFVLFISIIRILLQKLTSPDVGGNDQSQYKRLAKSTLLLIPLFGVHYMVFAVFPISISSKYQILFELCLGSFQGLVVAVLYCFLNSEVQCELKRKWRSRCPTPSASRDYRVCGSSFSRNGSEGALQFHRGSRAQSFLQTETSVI
Experiment: Inhibition of VIP-induced β-arrestin recruitment (% Activity Arrestin)
Assay type: cell-based
Design: expressed in transfected cells; host or cells: HEK293 cells transfected with VIPR2 in pCDNA3.1 (as described)
Conditions: 0.5 μM, Batch 1
parameter_measured: inhibition at 0.5 µM (%)

INSERT INTO results (molecule, display_unit, reported) VALUES
  ('Cc1ccc(S(=O)(=O)NC[C@@H](O)C[C@@H](Cc2ccccc2)C(=O)N[C@H]2c3ccccc3C[C@H]2O)cc1', '%', 62.8),
  ('CC(C)(C)c1ccc(S(=O)(=O)NC[C@@H](O)C[C@@H](Cc2ccccc2)C(=O)N[C@H]2c3ccccc3C[C@H]2O)cc1 [A, reference compound]', '%', 0),
  ('O=C(CCCCBr)NC[C@@H](O)C[C@@H](Cc1ccccc1)C(=O)N[C@H]1c2ccccc2C[C@H]1O', '%', 1.7),
  ('O=C(NC[C@@H](O)C[C@@H](Cc1ccccc1)C(=O)N[C@H]1c2ccccc2C[C@H]1O)c1cccc(Br)c1', '%', -3.8),
  ('O=C(NC[C@@H](O)C[C@@H](Cc1ccccc1)C(=O)N[C@H]1c2ccccc2C[C@H]1O)c1cccc(CCl)c1', '%', -8.1),
  ('O=C(NC[C@@H](O)C[C@@H](Cc1ccccc1)C(=O)N[C@H]1c2ccccc2C[C@H]1O)c1cccc([N+](=O)[O-])c1', '%', 19.9),
  ('O=C(NC[C@@H](O)C[C@@H](Cc1ccccc1)C(=O)N[C@H]1c2ccccc2C[C@H]1O)c1ccc2ccccc2c1', '%', -2.9),
  ('O=C(NC[C@@H](O)C[C@@H](Cc1ccccc1)C(=O)N[C@H]1c2ccccc2C[C@H]1O)C1CCCCCC1', '%', 24.4),
  ('CS(=O)(=O)NC[C@@H](O)C[C@@H](Cc1ccccc1)C(=O)N[C@H]1c2ccccc2C[C@H]1O', '%', 17.3),
  ('O=C(CCl)NC[C@@H](O)C[C@@H](Cc1ccccc1)C(=O)N[C@H]1c2ccccc2C[C@H]1O', '%', 9.9),
  ('O=C(Cc1cccc(Cl)c1)NC[C@@H](O)C[C@@H](Cc1ccccc1)C(=O)N[C@H]1c2ccccc2C[C@H]1O', '%', 11.3),
  ('O=C(NC[C@@H](O)C[C@@H](Cc1ccccc1)C(=O)N[C@H]1c2ccccc2C[C@H]1O)c1c(Cl)cc(Cl)cc1Cl', '%', 23.9),
  ('C#CCCCC(=O)NC[C@@H](O)C[C@@H](Cc1ccccc1)C(=O)N[C@H]1c2ccccc2C[C@H]1O', '%', 45.8),
  ('O=C(N[C@H]1c2ccccc2C[C@H]1O)[C@H](Cc1ccccc1)C[C@H](O)CNS(=O)(=O)c1ccc([N+](=O)[O-])cc1 [Compound A27, reference compound]', '%', 37.7),
  ('Cc1cc(S(=O)(=O)NC[C@@H](O)C[C@@H](Cc2ccccc2)C(=O)N[C@H]2c3ccccc3C[C@H]2O)c(C)cc1Cl', '%', 17.6),
  ('O=C(NC[C@@H](O)C[C@@H](Cc1ccccc1)C(=O)N[C@H]1c2ccccc2C[C@H]1O)c1cccnc1', '%', -6.8),
  ('C=Cc1ccc(C(=O)NC[C@@H](O)C[C@@H](Cc2ccccc2)C(=O)N[C@H]2c3ccccc3C[C@H]2O)cc1', '%', 2.3),
  ('CC(C)c1ccc(S(=O)(=O)NC[C@@H](O)C[C@@H](Cc2ccccc2)C(=O)N[C@H]2c3ccccc3C[C@H]2O)cc1', '%', 31.5),
  ('O=C(N[C@H]1c2ccccc2C[C@H]1O)[C@H](Cc1ccccc1)C[C@H](O)CNS(=O)(=O)c1ccccc1C(F)(F)F', '%', 10.7),
  ('O=C(NC[C@@H](O)C[C@@H](Cc1ccccc1)C(=O)N[C@H]1c2ccccc2C[C@H]1O)c1ccc([N+](=O)[O-])cc1', '%', -0.5),
  ('NC[C@@H](O)C[C@@H](Cc1ccccc1)C(=O)N[C@H]1c2ccccc2C[C@H]1O', '%', 3.7),
  ('O=C(N[C@H]1c2ccccc2C[C@H]1O)[C@H](Cc1ccccc1)C[C@H](O)CNS(=O)(=O)c1ccc(C(F)(F)F)cc1', '%', 58.1),
  ('Cc1ccc(S(=O)(=O)NC[C@@H](O)C[C@@H](Cc2ccccc2)C(=O)N[C@H]2c3ccccc3C[C@H]2O)c(C)c1', '%', 2.8),
  ('CC(C)c1cc(C(C)C)c(S(=O)(=O)NC[C@@H](O)C[C@@H](Cc2ccccc2)C(=O)N[C@H]2c3ccccc3C[C@H]2O)c(C(C)C)c1', '%', 29.7),
  ('CC(=O)c1ccc(S(=O)(=O)NC[C@@H](O)C[C@@H](Cc2ccccc2)C(=O)N[C@H]2c3ccccc3C[C@H]2O)cc1', '%', 58.3),
  ('O=C(NC[C@@H](O)C[C@@H](Cc1ccccc1)C(=O)N[C@H]1c2ccccc2C[C@H]1O)C1CC1', '%', -3.8),
  ('O=C(NC[C@@H](O)C[C@@H](Cc1ccccc1)C(=O)N[C@H]1c2ccccc2C[C@H]1O)c1ccco1', '%', 30.3);

====

Biological target: VIPR2 (Homo sapiens)
Sequence (P41587 24-438): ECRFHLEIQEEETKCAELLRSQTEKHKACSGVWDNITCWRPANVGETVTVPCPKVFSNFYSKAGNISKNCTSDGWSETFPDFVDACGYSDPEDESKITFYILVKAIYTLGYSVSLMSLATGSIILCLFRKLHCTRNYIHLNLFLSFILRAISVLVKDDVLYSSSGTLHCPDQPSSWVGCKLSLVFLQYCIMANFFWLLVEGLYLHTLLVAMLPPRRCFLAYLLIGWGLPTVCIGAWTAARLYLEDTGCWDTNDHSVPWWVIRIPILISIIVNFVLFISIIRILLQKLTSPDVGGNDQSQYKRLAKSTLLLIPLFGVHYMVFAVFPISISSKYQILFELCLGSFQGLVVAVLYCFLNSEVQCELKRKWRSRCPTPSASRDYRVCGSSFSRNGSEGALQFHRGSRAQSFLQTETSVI
Experiment: Inhibition of VIP-induced cAMP elevation (% Activity cAMP)
Type: cell-based
Design: expressed in transfected cells; host or cells: HEK293 cells transfected with VIPR2 in pCDNA3.1 (as described)
Settings: 0.5 μM, Batch 1
Each entry below carries its reported inhibition at 0.5 µM.
parameter_measured: inhibition at 0.5 µM (%)

INSERT INTO results (smiles_structure, parameter_measured, display_unit, reported) VALUES
  ('COc1ccc(S(=O)(=O)NC[C@@H](O)C[C@@H](Cc2ccccc2)C(=O)N[C@H]2c3ccccc3C[C@H]2O)cc1OC', 'inhibition at 0.5 µM', '%', 21.1),
  ('O=C(NC[C@@H](O)C[C@@H](Cc1ccccc1)C(=O)N[C@H]1c2ccccc2C[C@H]1O)c1c(Cl)cc(Cl)cc1Cl', 'inhibition at 0.5 µM', '%', 17.6),
  ('NC[C@@H](O)C[C@@H](Cc1ccccc1)C(=O)N[C@H]1c2ccccc2C[C@H]1O', 'inhibition at 0.5 µM', '%', 11.8),
  ('CC(C)c1cc(C(C)C)c(S(=O)(=O)NC[C@@H](O)C[C@@H](Cc2ccccc2)C(=O)N[C@H]2c3ccccc3C[C@H]2O)c(C(C)C)c1', 'inhibition at 0.5 µM', '%', 19.5);

====

Target: VIPR2 (Homo sapiens, UniProt P41587)
Experiment: % Activity: inhibition of VIP-induced cAMP elevation and β-arrestin recruitment (Table 2)
Type: cell-based
Set-up: expressed in transfected cells; host or cells: HEK293 cells transfected with VIPR2 in pCDNA3.1 (as described)
Method: In a further non-limiting embodiment of the invention, the ability of a compound to inhibit VIPR2 and thereby […] a VIP-induced increase in cAMP may be measured using a Homogeneous Time-Resolved Fluorescence (“HTRF® assay; Cisbio Bioassays) as used in Chu et al., 2010, Molecular Pharmacol. 7795-101. […] After at least 1 h of room-temperature incubation, HTRF signal may be read, for example using Viewlux or EnVision (PerkinElmer Life and Analytical Sciences, Waltham, Mass.). […]
The threshold is inclusive: % Activity of exactly 20% counts as Yes; values below receive No.

INSERT INTO measurements (molecule, classification) VALUES
  ('O=C(N[C@H]1c2ccccc2C[C@H]1O)[C@H](Cc1ccccc1)C[C@H](O)CNS(=O)(=O)c1ccccc1F', 'Yes'),
  ('O=C(Cc1cccc(Cl)c1)NC[C@@H](O)C[C@@H](Cc1ccccc1)C(=O)N[C@H]1c2ccccc2C[C@H]1O', 'Yes'),
  ('O=C([C@H](Cc1ccccc1)C[C@H](O)CNS(=O)(=O)c1ccc([N+](=O)[O-])cc1)N1CCC(CO)CC1', 'No'),
  ('CC(C)c1cc(C(C)C)c(S(=O)(=O)NC[C@@H](O)C[C@@H](Cc2ccccc2)C(=O)N[C@H]2c3ccccc3C[C@H]2O)c(C(C)C)c1', 'Yes'),
  ('O=C(NC[C@@H](O)C[C@@H](Cc1ccccc1)C(=O)N[C@H]1c2ccccc2C[C@H]1O)c1ccco1', 'Yes'),
  ('C#CCNC(=O)[C@@H](Cc1ccccc1)C[C@H](O)CNS(=O)(=O)c1ccc([N+](=O)[O-])cc1 [Compound B21B]', 'No'),
  ('Cc1ccc(S(=O)(=O)NC[C@@H](O)C[C@@H](Cc2ccccc2)C(=O)N[C@H]2c3ccccc3C[C@H]2O)cc1', 'Yes');
